Tested on: SK-OV-3 cells
Assay: CellTiter-Glo cell viability assay, SK-OV-3 cells
Format: cell-based
Conditions: Homo sapiens, SK-OV-3, SK-OV-3 cells; Compound I-7 present at 4 μM
Excerpt: The following cell lines were obtained from ATCC and cultured according to the ATCC recommendations: DMS273—small cell lung cancer cell line; H1975—non-small cell lung cancer cell line harboring L858R and T790M mutations in EGFR TK; A549—a non-small cell lung cancer cell line with wild type EGFR; LNCap—prostate cancer cell line; SW620—colon cancer cell line; MiaPaCa2—pancreatic cancer cell line; PANC1—pancreatic cancer cell line; OVCAR3—ovarian cancer cell line; SK-OV-3—ovarian cancer cell line. […]
pEC50: −log10 of the molar value.
# key: entry, value: pEC50
outcome measure: pEC50

>>> assay_value("CCC1=C[C@@H]2CN(C1)Cc1c([nH]c3ccccc13)[C@@](C(=O)OC)(c1cc3c(cc1OC)N(C)[C@H]1[C@@](O)(C(=O)OC)[C@H](OC(C)=O)[C@]4(CC)C=CCN5CC[C@]31[C@@H]54)C2 [vinorelbine]")
8.33
>>> assay_value("CC[C@]1(O)C[C@H]2CN(CCc3c([nH]c4ccccc34)[C@@](C(=O)OC)(c3cc4c(cc3OC)N(C=O)[C@H]3[C@@](O)(C(=O)OC)[C@H](OC(C)=O)[C@]5(CC)C=CCN6CC[C@]43[C@@H]65)C2)C1 [vincristine]")
8.68
>>> assay_value("CC(=O)O[C@@]12CO[C@@H]1C[C@H](O)[C@@]1(C)C(=O)[C@H](O)C3=C(C)[C@@H](OC(=O)[C@H](O)[C@@H](NC(=O)OC(C)(C)C)c4ccccc4)C[C@@](O)([C@@H](OC(=O)c4ccccc4)[C@H]21)C3(C)C [docetaxel]")
9.52
>>> assay_value("CC(=O)O[C@H]1C(=O)[C@@]2(C)[C@H]([C@H](OC(=O)c3ccccc3)[C@]3(O)C[C@H](OC(=O)[C@H](O)[C@@H](NC(=O)c4ccccc4)c4ccccc4)C(C)=C1C3(C)C)[C@]1(OC(C)=O)CO[C@@H]1C[C@@H]2O [paclitaxel]")
8.32

Attribution: patent US10314843B2
